Tested on: SW-620 colon
protocol summary: NCI tumour cell line growth inhibition, 48 h
# TGI per entry

[[record]]
compound = "CSc1nc(C)cc(N(C)c2ccccc2)n1"
measured = "> 100 µM"

[[record]]
compound = "COc1cccc(C2=NN(C(C)=O)C(c3cc(OC)c(OC)c(OC)c3)C2)c1 (stereo not given)"
measured = "> 100 µM"

[[record]]
compound = "C[C@]1(O)CC(=O)c2c(c(-c3ccc4cc5c(c(O)c4c3O)C(=O)C[C@@](C)(O)C5)c3cccc(O)c3c2O)C1"
measured = "47 µM"

[[record]]
compound = "COC(OC)C1(c2ccccc2)Oc2ccccc2C1=O (stereo not given)"
measured = "> 100 µM"


# ---- query compound ----
So, COc1cc(/C=C2/C[C@H]3[C@@H]4CCC5=CC(=O)CC[C@]5(C)[C@H]4CC[C@]3(C)NC2=O)cc(OC)c1OC ? Its TGI was > 100 µM

====

Test system: MOLT-4 leukemia
protocol summary: NCI tumour cell line growth inhibition, 48 h
Consider the following molecules and their measured TGI readings.
Provide the reading as a plain figure in µM.

[[record]]
molecule = "CCOC(=O)c1c(Nc2ccccc2)sc2cccnc12"
measured = 55.9

[[record]]
molecule = "COC(=O)c1c2c(c[n+]([O-])c1C)C(=O)C(NCc1ccccc1)=CC2=O"
measured = 2.59


We now examine a further molecule.
The measured TGI associated with C/C(Sc1ccccc1)=C1/CCCN(Cc2ccccc2)C1 reads 39.4

====

Tested on: OVCAR-4 ovarian
protocol summary: NCI tumour cell line growth inhibition, 48 h
value kind: TGI

[[record]]
molecule = "O=C1CCCCC1C1(O)C(=O)Nc2cc(F)ccc21 (centres undefined)"
value_kind = "TGI"
measured = "> 100 µM"

[[record]]
molecule = "CCOC(=O)c1c(NS(=O)(=O)c2ccc(Br)cc2)sc2c1CCCC2"
value_kind = "TGI"
measured = "> 100 µM"


TGI measured on O=[N+]([O-])c1ccccc1S(=O)(=O)c1ccccc1[N+](=O)[O-] = > 100 µM

In plain terms, CCCCCCCCC(=O)CCCCCCCCC(=O)O has a documented TGI of > 100 µM

TGI reported for this molecule CN(C)S(=O)(=O)n1ccnc1 : > 100 µM

The recorded TGI for C/C(=C/CNc1ncnc2c1ncn2CCC(=O)O)CO is > 100 µM

Please fill in: TGI reported for NCCCCN = 51.5 µM

====

Tested on: SN12C renal
protocol summary: NCI tumour cell line growth inhibition, 48 h
value kind: log10(TGI) (log10 of the value in µM)
Log scale reminder: TGI in µM, then log10 taken.

[[record]]
compound = "COc1ccc(C2=C(Br)C(=O)OC2)cc1Cl"
test_system = "SN12C renal"
measured = 1.72

[[record]]
compound = "COC(=O)/C=C1/OC(c2ccc(Br)cc2)=C(Br)C1=O"
test_system = "SN12C renal"
measured = 1.25

[[record]]
compound = "CCOC(=O)c1c(NS(=O)(=O)c2ccc(Br)cc2)sc2c1CCCC2"
test_system = "SN12C renal"
measured = 1.08


Observed log10(TGI), SN12C renal, Cc1cc(N2CCOCC2)nc(N(CCNc2ccnc3cc(Cl)ccc23)Cc2ccco2)n1 : 1.43

Result for COc1ccccc1/C=C1\CCC(CN(C)C)C1=O (configuration not stated) , tested on SN12C renal, log10(TGI): 1.12

Measured on SN12C renal, CC(C)(C)OC(=O)N1C(C2=COc3ccccc3O2)=COc2cccnc21 has a documented log10(TGI) of 0.53

Reported SN12C renal log10(TGI) for item Nc1ccccc1C#Cc1ccccc1C#Cc1ccccc1N was 1.39

====

System: HOP-62 NSCLC
protocol summary: NCI tumour cell line growth inhibition, 48 h
value kind: TGI

Consider the following illustrative entries.
[[record]]
compound = "C=C1C(=O)O[C@H]2[C@H]1CC/C(COC(=O)NCc1c[nH]c3ccc(OC)cc13)=C\\CC[C@@]1(C)O[C@@H]21"
value_kind = "TGI"
measured = "24.1 µM"

[[record]]
compound = "COc1cc(-c2nn(C)nc2-c2cc3ccccc3s2)cc(OC)c1OC"
value_kind = "TGI"
measured = "> 100 µM"

[[record]]
compound = "COC(=O)C(CCC1(C)OCCO1)C(C)=O (stereo unspecified)"
value_kind = "TGI"
measured = "> 100 µM"

[[record]]
compound = "O=P(O)(O)OP(=O)(O)O"
value_kind = "TGI"
measured = "> 100 µM"

[[record]]
compound = "CCOC(=O)CCC(NC(=O)N1CCN(c2c(C)nc(C)[nH]c2=O)CC1)C(=O)OCC (stereo unspecified)"
value_kind = "TGI"
measured = "> 100 µM"


Kindly review the next compound as well.
In plain terms, CCCCCCOC(=O)C(N)Cc1ccc(OC)cc1 (stereo unspecified) has a documented TGI of > 100 µM

====

Test system: SF-539 CNS
protocol summary: NCI tumour cell line growth inhibition, 48 h
value kind: TGI

Tested system SF-539 CNS; TGI recorded for C/C(=C\CNc1ncnc2nc(Cl)[nH]c12)CO was > 100 µM

The observed TGI for CC(C)=C1C(=O)C[C@]2(C)C/C=C(\C)CC/C=C(\C)CC[C@@H]12 when tested with SF-539 CNS stands at 15.8 µM

Form: item S=C1CNC(=S)CN1 ; test system SF-539 CNS; TGI: > 100 µM

Lab note: molecule CCCCC(SC(=S)N(CC)CC)C(=O)Nc1nc(CC(=O)OCC)cs1 (stereo unspecified) tested on SF-539 CNS; recorded TGI was > 100 µM

TGI on SF-539 CNS for C[C@]1(O)CC(=O)c2c(c(-c3ccc4cc5c(c(O)c4c3O)C(=O)C[C@@](C)(O)C5)c3cccc(O)c3c2O)C1 is 6.45 µM

====

# key: entry, value: TGI
Tested on: SK-MEL-2 melanoma
protocol summary: NCI tumour cell line growth inhibition, 48 h

Use the examples below as a reference point.
[[record]]
compound = "CC(Br)C(=O)c1ccc2cc(Br)c3ccccc3c2c1 (stereo unspecified)"
value_kind = "TGI"
measured = "26.5 µM"

[[record]]
compound = "Cn1ccnc1SC(F)(F)c1nc2ccccc2o1"
value_kind = "TGI"
measured = "> 100 µM"

[[record]]
compound = "O=[N+]([O-])c1nccn1CCCN=c1c2ccccc2n(O)c2ccccc12"
value_kind = "TGI"
measured = "> 100 µM"

[[record]]
compound = "CN(C)c1cc2c(cc1Sc1nc3c(N)nccc3n1CCNCC(C)(C)C)OCO2"
value_kind = "TGI"
measured = "16.9 µM"

[[record]]
compound = "O=C(COC(c1ccc(F)cc1)c1ccc(F)cc1)N1CCN(CCCc2ccccc2)CC1"
value_kind = "TGI"
measured = "15.4 µM"


From here, focus on the item given below.
Measured TGI of O=C1C(=O)c2ccccc2C=C1[N+](=O)[O-] : 99.5 µM

====

Tested on: HOP-92 NSCLC
protocol summary: NCI tumour cell line growth inhibition, 48 h; in the data active = GI50 below about 0.43 µM; inactive = the rest
Respond only with the outcome that fits, drawn from label 1 = active, label 0 = inactive

# example entries with known answers
[[record]]
molecule = "Clc1cccc(Cn2cc(Cc3cn(Cc4cccc(Cl)c4)c4ccccc34)c3ccccc32)c1"
label = "label 0"

[[record]]
molecule = "Cc1cc(N2CCOCC2)nc(N(CCCNc2ccnc3cc(Cl)ccc23)Cc2ccc3c(c2)OCO3)n1"
label = "label 0"

[[record]]
molecule = "Cc1oncc1C(=O)Nc1ccc(C(F)(F)F)cc1"
label = "label 0"

[[record]]
molecule = "Clc1ccc(-c2nc(-c3c[nH]c4ncccc34)cs2)cc1"
label = "label 1"

[[record]]
molecule = "NC(=O)c1cccc(N)c1"
label = "label 0"

[[record]]
molecule = "CNC(=O)c1cc(Oc2ccc3nc(NC(=O)c4cc(C(F)(F)F)cc(C(F)(F)F)c4)sc3c2)ccn1"
label = "label 0"

[[record]]
molecule = "O=C(/C=C\\c1cccc([N+](=O)[O-])c1)c1ccccc1"
label = "label 0"

[[record]]
molecule = "NC(=O)Cc1ccccc1Oc1nccc(-c2c(-c3ccc(F)cc3)ncn2C2CCNCC2)n1"
label = "label 0"


Here is another molecule to look at.
What was the test verdict on C[C@H]1O[C@@H](O[C@H]2[C@@H](O)C[C@H](O[C@H]3[C@@H](O)C[C@H](O[C@H]4CC[C@]5(C)C6C[C@@H](O)[C@]7(C)[C@@H](C8=CC(=O)OC8)CC[C@]7(O)C6CC[C@@H]5C4)O[C@@H]3C)O[C@@H]2C)C[C@H](O)[C@@H]1O (some centres undefined) ?
label 1

====

molecules and their reported log10 of TGI
Tested on: M14 melanoma
protocol summary: NCI tumour cell line growth inhibition, 48 h
Transform log10 | Measure TGI | Unit µM

Solved cases (5 shown):
[[record]]
molecule = "C[C@]1(O)CC(=O)c2c(c(-c3ccc4cc5c(c(O)c4c3O)C(=O)C[C@@](C)(O)C5)c3cccc(O)c3c2O)C1"
test_system = "M14 melanoma"
measured = 1.47

[[record]]
molecule = "O=C(/C=C\\c1cccc([N+](=O)[O-])c1)c1ccccc1"
test_system = "M14 melanoma"
measured = 1.15

[[record]]
molecule = "COc1cc2c3c(n(CCCN=[N+]=[N-])c(=O)c2cc1OC)-c1ccc(N)cc1C3=O"
test_system = "M14 melanoma"
measured = -0.63

[[record]]
molecule = "Cc1nc(NC(=O)COc2cccc(/C=C3\\COc4ccccc4C3=O)c2)sc1C"
test_system = "M14 melanoma"
measured = 0.57

[[record]]
molecule = "CCCCCCCCCCCCCCCCCC(=O)[O][Sn]([CH2]CCC)([CH2]CCC)[CH2]CCC"
test_system = "M14 melanoma"
measured = -0.49


// recorded log10 of TGI for C/C=C1/CN2CCC34C5=CC(=O)C(c6cc7c(cc6OC)N(C)C6=C(C(=O)OC)CC8(CC)CCCN9CCC67C98)=CC5=NC23CCC1C4C(=O)OC (stereo not given) : 1.39

In plain terms, N#Cc1cc(-c2ccccc2)[nH]c1-c1nccc2ccccc12 has a documented log10 of TGI of 1.93

Lab note: CCOC(=O)c1c(Nc2ccccc2)sc2cccnc12 gave log10 of TGI of 1.42
